# target-entity: hDP (Homo sapiens, UniProt Q13258)
# Sequence (Q13258 whole entry): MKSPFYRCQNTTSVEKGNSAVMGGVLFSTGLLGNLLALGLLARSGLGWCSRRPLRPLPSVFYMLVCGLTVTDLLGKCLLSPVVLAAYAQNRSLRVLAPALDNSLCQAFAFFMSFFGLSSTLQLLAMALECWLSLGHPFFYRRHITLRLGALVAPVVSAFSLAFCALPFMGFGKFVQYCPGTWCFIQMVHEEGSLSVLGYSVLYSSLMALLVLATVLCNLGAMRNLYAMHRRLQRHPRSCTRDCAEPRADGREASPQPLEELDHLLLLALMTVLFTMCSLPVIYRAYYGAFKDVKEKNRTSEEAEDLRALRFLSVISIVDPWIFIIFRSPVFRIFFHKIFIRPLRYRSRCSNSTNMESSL
# assay-comment: Other receptors functional assay, hDP
observation-type: EC50

Could you tell me which EC50 is on file for O=C(O)c1ccc(CCC[C@H]2CCC(=O)N2CCc2cc(Cl)cc(Cl)c2)s1 ? 6.22 µM

----------
# target-entity: EP4 (Homo sapiens, UniProt P35408)
# Sequence (P35408 whole entry): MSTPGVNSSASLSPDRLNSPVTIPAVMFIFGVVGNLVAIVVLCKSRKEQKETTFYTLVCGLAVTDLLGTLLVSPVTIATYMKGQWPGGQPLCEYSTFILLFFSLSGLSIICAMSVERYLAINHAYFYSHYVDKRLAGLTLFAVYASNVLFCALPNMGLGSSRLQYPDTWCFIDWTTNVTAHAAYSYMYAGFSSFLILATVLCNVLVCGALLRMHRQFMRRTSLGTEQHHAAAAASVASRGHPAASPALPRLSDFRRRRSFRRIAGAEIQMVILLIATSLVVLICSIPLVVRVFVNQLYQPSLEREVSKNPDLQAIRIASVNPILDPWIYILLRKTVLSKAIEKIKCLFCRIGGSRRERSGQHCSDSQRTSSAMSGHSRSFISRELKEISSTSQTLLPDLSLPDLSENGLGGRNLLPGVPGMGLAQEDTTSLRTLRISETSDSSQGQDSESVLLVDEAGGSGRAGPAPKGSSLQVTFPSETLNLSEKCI
# assay-comment: EP4 flipr functional assay
observation-type: EC50

Reported EC50, molecule O=C(O)c1ccc(COC[C@H]2CCC(=O)N2CCc2cc(Cl)cc(Cl)c2)s1 : ____ > 10 µM

----------
# target-entity: EP2 (Homo sapiens, UniProt P43116)
# Sequence (P43116 whole entry): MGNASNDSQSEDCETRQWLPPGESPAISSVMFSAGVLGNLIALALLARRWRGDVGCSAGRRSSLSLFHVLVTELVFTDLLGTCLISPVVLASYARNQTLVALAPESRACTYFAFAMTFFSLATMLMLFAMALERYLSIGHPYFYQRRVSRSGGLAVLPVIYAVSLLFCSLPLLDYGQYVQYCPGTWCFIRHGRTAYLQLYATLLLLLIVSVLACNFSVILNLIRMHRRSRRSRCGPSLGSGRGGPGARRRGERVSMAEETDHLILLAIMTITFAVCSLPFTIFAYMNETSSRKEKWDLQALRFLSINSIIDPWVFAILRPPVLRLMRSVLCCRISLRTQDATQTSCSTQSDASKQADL
# assay-comment: EP2 flipr functional assay
# Type: cell-based
observation-type: pEC50
Schema: pEC50 number; meaning minus log10 of the concentration expressed in molar units.

# value lookup — system EP2 (Homo sapiens, UniProt P43116), readout pEC50, item O=C(O)c1ccc(CCC[C@H]2CCC(=O)N2CCc2cc(Cl)cc(Cl)c2)s1 5.08

----------
# target-entity: EP2 (Homo sapiens)
# assay-comment: EP2 binding (KI)
observation-type: pKi
Scale for pKi: -log10 of concentration given in mol/L; no unit attached.

Please give the measured pKi for this molecule: O=C(O)c1ccc(CCC[C@H]2CCC(=O)N2CCc2cc(Cl)cc(Cl)c2)s1 7.62
